Protocol text: Inhibition of Apaf-1-caspase 9-cytochrome c (horse) complex assessed as inhibition of release of afc from […] preincubated for 60 mins before substrate addition by fluorescence assay
Lab note: cut-off is 6 µM. Strictly less in EC50 is rule met. Exactly 6 µM or more is rule not met.

// below: answered compounds
NC(=O)CN(CCc1ccc(Cl)cc1Cl)C(=O)C1CC(=O)N(CCc2ccc(Cl)cc2Cl)CC(=O)N1CCC(c1ccccc1)c1ccccc1 (racemic) | rule not met
NC(=O)CN(CCc1ccc(Cl)cc1Cl)C(=O)CC1C(=O)N(CCc2ccc(Cl)cc2Cl)CC(=O)N1CCC(c1ccccc1)c1ccccc1 (racemic) | rule not met
NC(=O)CN(CCc1ccc(Cl)cc1Cl)C(=O)[C@@H]1CC(=O)N(CCc2ccc(Cl)cc2Cl)CC(=O)N1CCC(c1ccccc1)c1ccccc1 | rule met
NC(=O)CN(CCc1ccc(Cl)cc1Cl)C(=O)C[C@@H]1C(=O)N(CCc2ccc(Cl)cc2Cl)CC(=O)N1CCC(c1ccccc1)c1ccccc1 | rule not met

Below 6 µM on EC50? Entry `NC(=O)CN(CCc1ccc(Cl)cc1Cl)C(=O)C[C@H]1C(=O)N(CCc2ccc(Cl)cc2Cl)CC(=O)N1CCC(c1ccccc1)c1ccccc1`
rule not met

And for `NC(=O)CN(CCc1ccc(Cl)cc1Cl)C(=O)[C@H]1CC(=O)N(CCc2ccc(Cl)cc2Cl)CC(=O)N1CCC(c1ccccc1)c1ccccc1` ?
rule met
